Assay: yeast display, Sf9 membrane polyspecificity reagent, FACS + sequencing; frameworks hold sequencing errors

>  <primary sequence>
QVQLVESGGGLVQAGGSLRLSCAASGRTFIHYAMGWSRQAPGKERELVAAISRRGGSTYYADSVKGRFTISRDNAKNTVYLQMNSLKPEDTAVYYCAARLLGITGRTDSGAEGDYWGQGTQVTVSS

>  <polyreactivity (PSR sort gate)>
high polyreactivity

$$$$
>  <primary sequence>
QVQLVESGGGLVQAGGSLRLSCAASGRIFVGYAMGWYIQAPGKERELVAAINRSGSSTYYADSVKGRFTISRDNAKNTVYLQMNRLKPEDTAVYYCNARSGNRYGPRYDYWGQGTQVTVSS

>  <polyreactivity (PSR sort gate)>
high polyreactivity

$$$$
